Numbers sourced from the supplement of paper PMC11061612.

system: TT2609-C02 (Thyroid Gland Carcinoma); test: Bliss excess, mean over the matrix (fraction); higher = more synergy
readout_kind: Bliss excess
Give bare numbers.

Reference set (3 entries):
CN(C)CCCOc1ccc(-c2ccc3ncc4c(c3c2)n(C2CCOCC2)c(=O)n4C)cn1 [AZD0156] + CCN(CCO)CCCOc1ccc2c(Nc3cc(CC(=O)Nc4cccc(F)c4)[nH]n3)ncnc2c1 [AZD2811] (first compound max 1 µM, 7x7, partner max 1 µM) | -0.0032
COc1cccc(OCCCN)c1-c1cc(Nc2cnc(C#N)cn2)n[nH]1 [Prexasertib] + O=C(c1cc(Cc2n[nH]c(=O)c3ccccc23)ccc1F)N1CCN(C(=O)C2CC2)CC1 [Olaparib] (first compound max 1 µM, 7x7, partner max 10 µM) | -0.0062
C=CCn1c(=O)c2cnc(Nc3ccc(N4CCN(C)CC4)cc3)nc2n1-c1cccc(C(C)(C)O)n1 [AZD1775] + O=C(c1cc(Cc2n[nH]c(=O)c3ccccc23)ccc1F)N1CCN(C(=O)C2CC2)CC1 [Olaparib] (first compound max 1 µM, partner max 10 µM) | -0.0311

Note: attention shifts to another entry.
// query Look at this compound and give its reported Bliss excess. CC(=O)Nc1cccc(-n2c(=O)n(C3CC3)c(=O)c3c(Nc4ccc(I)cc4F)n(C)c(=O)c(C)c32)c1 [Trametinib] + Cc1nc(-c2cn3c(n2)-c2ccc(-c4cnn(C(C)(C)C(N)=O)c4)cc2OCC3)n(C(C)C)n1 [Taselisib] (first compound max 1 µM, 7x7, partner max 10 µM)
// result 0.0909

====

system: CAPAN-2 (Pancreatic Carcinoma); assay: combination Emax (second highest fraction inhibited in the dose matrix, 72 h); higher = more inhibition; extreme values may be limits of the assay
readout_kind: combination Emax
Numbers only.

Some molecules with known combination Emax results, for comparison:
CCc1c2c(nc3ccc(O)cc13)-c1cc3c(c(=O)n1C2)COC(=O)[C@]3(O)CC [SN-38] + CN(C)CCCOc1ccc(-c2ccc3ncc4c(c3c2)n(C2CCOCC2)c(=O)n4C)cn1 [AZD0156] (first compound max 0.3 µM, 7x7, partner max 1 µM) | 0.206
COc1nnc2ccc(N3CCC(c4ccc(OCCN5CCN(C)C(=O)[C@H]5C)cc4)CC3)nn12 [AZD5153] + C[C@@H]1COCCN1C2=NC(=NC(=C2)C3(CC3)[S@](=N)(=O)C)C4=C5C=CNC5=NC=C4 [AZD6738] (first compound max 1 µM, 7x7, partner max 10 µM) | 0.379
CC1(C)CCC(CN2CCN(c3ccc(C(=O)NS(=O)(=O)c4ccc(NCC5CCOCC5)c([N+](=O)[O-])c4)c(Oc4cnc5[nH]ccc5c4)c3)CC2)=C(c2ccc(Cl)cc2)C1 [Venetoclax] + CCN(CCO)CCCOc1ccc2c(Nc3cc(CC(=O)Nc4cccc(F)c4)[nH]n3)ncnc2c1 [AZD2811] (first compound max 1 µM, 7x7, partner max 1 µM) | 0.204

// next entry
// query Please report the recorded combination Emax for N#Cc1cnc(Nc2cc(NC[C@H]3CNCCO3)c(C(F)(F)F)cn2)cn1 [SRA737] + O=c1[nH]cc(F)c(=O)[nH]1 [5-Fluorouracil] (first compound max 10 µM, 7x7, partner max 20 µM) .
// result 0.147

====

test system: CCK-81 (Colorectal Carcinoma); assay: Bliss excess, mean over the matrix (fraction); higher = more synergy
readout_kind: Bliss excess
Numbers only.

COc1nnc2ccc(N3CCC(c4ccc(OCCN5CCN(C)C(=O)[C@H]5C)cc4)CC3)nn12 [AZD5153] + Cc1c2c(nn1C)CSCc1cc(n(C)n1)CSc1cc(c3ccccc3c1)OCCCc1c(C(=O)O)n(C)c3c-2c(Cl)ccc13 [AZD5991] (first compound max 1 µM, 7x7, partner max 1 µM) | -0.0485
Cn1cnc2c(F)c(Nc3ccc(Br)cc3Cl)c(C(=O)NOCCO)cc21 [Selumetinib] + CC(C)n1c(=O)n(C)c2cnc3cc(F)c(-c4ccc(OCCCN5CCCCC5)nc4)cc3c21 [AZD1390] (first compound max 10 µM, 7x7, partner max 0.3 µM) | 0.0157

Consider now this further compound.
// query I am curious: what Bliss excess value has been reported for CN(CCO)CC[C@H](CSc1ccccc1)Nc1ccc(S(=O)(=O)NC(=O)c2ccc(N3CCC([C@@H](O)c4ccccc4-c4ccc(Cl)cc4)CC3)cc2)cc1S(=O)(=O)C(F)(F)F [AZD4320] + CS(=O)(=O)CCNCc1ccc(-c2ccc3ncnc(Nc4ccc(OCc5cccc(F)c5)c(Cl)c4)c3c2)o1 [Lapatinib] (first compound max 1 µM, 7x7, partner max 10 µM) ?
// result 0.0767
